Assign pIC50 to each entry below.
biological target: UniProt:Q9P2K8; assay: GCN2 enzymatic endpoint assay: phosphorylation of GFP-eIF2α measured by TR-FRET (Lanthascreen); assay type: biochemical; details: tested as described in Example 77; compound and/or hydrochloride, dihydrochloride or trifluoroacetic acid salt; read-out: IC 50 Activity
pIC50: −log10 of the molar value.

Data request: Report pIC50 for CCN1CN(C(=O)[C@@H]2CC[C@@H](Nc3ncc4c(Br)nn(-c5cc(F)c6ncccc6c5)c4n3)C2)CC1=O please.
Data returned: 6.70 to 7.60

Data request: Cool, now CN=S(C)(=O)CCNC(=O)[C@@H]1CC[C@@H](Nc2ncc3c(Br)nn(-c4cc(F)c5ncccc5c4)c3n2)C1 (stereo partly shown)
Data returned: > 7.60

Data request: Cool, now CNC(=O)[C@]1(C)CC[C@@H](Nc2ncc3c(Br)nn(-c4ccc5nc(OC)ccc5c4)c3n2)C1
Data returned: 6.70 to 7.60

Data request: Cool, now CNC(=O)[C@]1(C#N)CC[C@@H](Nc2ncc3c(Br)nn(-c4ccc(-c5nnc(C)s5)c(CCC#N)c4)c3n2)C1
Data returned: 6.70 to 7.60

* * *

molecular target: GCN2 (Homo sapiens); assay: GCN2 enzymatic endpoint assay: phosphorylation of GFP-eIF2α measured by TR-FRET (Lanthascreen); type: biochemical; settings: tested as described in Example 77; compound and/or hydrochloride, dihydrochloride or trifluoroacetic acid salt; read-out: IC 50 Activity
Assign IC50 to each entry below.

Data request: Report IC50 for O=C(NCCN1CCNC1=O)[C@@H]1CC[C@@H](Nc2ncc3c(Br)nn(-c4cc(F)c5ncccc5c4)c3n2)C1 please.
Data returned: 25 to 200 nM

Data request: Cool, now CC1N(C)C(=O)CN1C(=O)[C@@H]1CC[C@@H](Nc2ncc3c(Br)nn(-c4cc(F)c5ncccc5c4)c3n2)C1 (mixture of isomers)
Data returned: < 25 nM

Data request: Cool, now Cc1nnc(-c2ccc(-n3nc(Br)c4cnc(N[C@@H]5CCC(CN6CCOCC6)(C(=O)O)C5)nc43)cc2)s1 (stereo partly shown)
Data returned: 25 to 200 nM

Data request: Cool, now CNC(=O)[C@@]1(CC(F)(F)F)CC[C@@H](Nc2ncc3c(Br)nn(-c4ccc(-c5nnc(C)s5)cc4)c3n2)C1
Data returned: 25 to 200 nM

* * *

biological target: GCN2 (Homo sapiens, UniProt Q9P2K8); test: GCN2 enzymatic endpoint assay: phosphorylation of GFP-eIF2α measured by TR-FRET (Lanthascreen); assay type: biochemical; conditions: tested as described in Example 77; compound and/or hydrochloride, dihydrochloride or trifluoroacetic acid salt; read-out: IC 50 Activity
Sequence (Q9P2K8 whole entry): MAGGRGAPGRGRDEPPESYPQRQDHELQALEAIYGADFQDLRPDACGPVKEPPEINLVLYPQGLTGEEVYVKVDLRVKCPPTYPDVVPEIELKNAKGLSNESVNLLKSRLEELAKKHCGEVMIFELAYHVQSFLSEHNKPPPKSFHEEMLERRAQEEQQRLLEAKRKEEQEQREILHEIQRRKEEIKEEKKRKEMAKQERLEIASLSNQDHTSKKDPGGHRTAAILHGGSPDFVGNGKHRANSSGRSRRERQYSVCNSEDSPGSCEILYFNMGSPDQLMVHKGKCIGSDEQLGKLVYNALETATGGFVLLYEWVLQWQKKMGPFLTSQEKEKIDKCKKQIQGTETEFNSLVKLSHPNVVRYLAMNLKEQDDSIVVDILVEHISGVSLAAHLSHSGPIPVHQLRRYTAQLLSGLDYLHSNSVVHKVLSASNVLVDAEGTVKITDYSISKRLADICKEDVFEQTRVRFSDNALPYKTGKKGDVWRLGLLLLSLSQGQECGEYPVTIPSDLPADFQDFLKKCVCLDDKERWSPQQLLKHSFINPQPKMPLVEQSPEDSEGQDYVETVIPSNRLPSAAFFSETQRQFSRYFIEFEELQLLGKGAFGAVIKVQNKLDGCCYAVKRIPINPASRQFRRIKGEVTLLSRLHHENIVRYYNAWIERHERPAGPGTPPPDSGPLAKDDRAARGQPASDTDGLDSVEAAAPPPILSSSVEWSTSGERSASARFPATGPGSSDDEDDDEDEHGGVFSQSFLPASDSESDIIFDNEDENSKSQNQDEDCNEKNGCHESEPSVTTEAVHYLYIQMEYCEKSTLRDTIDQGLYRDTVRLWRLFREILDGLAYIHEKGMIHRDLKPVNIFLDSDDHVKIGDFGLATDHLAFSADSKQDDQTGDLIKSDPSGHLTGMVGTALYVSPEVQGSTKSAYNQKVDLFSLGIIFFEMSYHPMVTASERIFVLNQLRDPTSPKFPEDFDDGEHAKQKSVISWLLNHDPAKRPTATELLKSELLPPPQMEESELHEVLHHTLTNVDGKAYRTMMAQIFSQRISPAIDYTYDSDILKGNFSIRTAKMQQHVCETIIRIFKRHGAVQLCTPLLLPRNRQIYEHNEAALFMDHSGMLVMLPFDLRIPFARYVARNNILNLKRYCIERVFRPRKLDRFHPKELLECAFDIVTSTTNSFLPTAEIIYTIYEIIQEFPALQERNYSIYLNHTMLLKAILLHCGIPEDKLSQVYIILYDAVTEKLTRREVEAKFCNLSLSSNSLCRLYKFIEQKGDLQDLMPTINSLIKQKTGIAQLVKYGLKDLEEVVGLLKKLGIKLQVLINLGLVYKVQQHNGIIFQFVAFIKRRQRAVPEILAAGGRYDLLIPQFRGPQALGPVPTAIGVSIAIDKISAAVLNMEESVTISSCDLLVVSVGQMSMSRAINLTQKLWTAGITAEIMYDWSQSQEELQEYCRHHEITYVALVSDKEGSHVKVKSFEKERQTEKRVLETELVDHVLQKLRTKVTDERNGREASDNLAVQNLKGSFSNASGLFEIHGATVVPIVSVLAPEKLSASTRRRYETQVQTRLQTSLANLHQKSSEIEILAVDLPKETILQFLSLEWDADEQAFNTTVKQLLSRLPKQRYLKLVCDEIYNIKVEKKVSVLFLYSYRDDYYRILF
MEASURED_PROPERTY: IC50

Data request: Report IC50 for CN(C(=O)[C@]1(C)CC[C@@H](Nc2ncc3c(Br)nn(-c4cc(F)c5ncccc5c4)c3n2)C1)C(C)(C)CO please.
Data returned: < 25 nM

Data request: Cool, now CNC(=O)[C@]1(C)CC[C@@H](Nc2ncc3c(Br)nn(-c4ccc(-n5ccnc5)cc4)c3n2)C1
Data returned: 25 to 200 nM

Data request: Cool, now CNC(=O)[C@]1(C)CC[C@@H](Nc2ncc3c(Br)nn(-c4ccc(-c5nnc(C(C)C)o5)cc4)c3n2)C1
Data returned: 25 to 200 nM

Data request: Cool, now CNC(=O)[C@]1(C)CC[C@@H](Nc2ncc3c(Br)nn(-c4cc(Br)cc(CN)c4)c3n2)C1
Data returned: 25 to 200 nM

Data request: Cool, now CNC(=O)[C@@H]1CC[C@@H](Nc2ncc3c(Br)nn(-c4cc(F)c(-c5cccnc5)c(C#N)c4)c3n2)C1
Data returned: 25 to 200 nM

Data request: Cool, now CNC(=O)[C@]1(C)CC[C@@H](Nc2ncc3c(Br)nn(-c4cc(F)cc(CO)c4)c3n2)C1
Data returned: 25 to 200 nM

Data request: Cool, now CNC(=O)[C@]1(CC(F)(F)F)CC[C@@H](Nc2ncc3c(Br)nn(-c4cc(F)c5ncccc5c4)c3n2)C1
Data returned: < 25 nM

Data request: Cool, now CNC(=O)[C@]1(C)CC[C@@H](Nc2ncc3c(Br)nn(-c4ccc(-c5ncco5)c(NC(=O)CCN)c4)c3n2)C1
Data returned: < 25 nM

* * *

molecular target: GCN2 (Homo sapiens, UniProt Q9P2K8); assay: GCN2 enzymatic endpoint assay: phosphorylation of GFP-eIF2α measured by TR-FRET (Lanthascreen); type: biochemical; conditions: tested as described in Example 77; compound and/or hydrochloride, dihydrochloride or trifluoroacetic acid salt; read-out: IC 50 Activity
Assign IC50 to each entry below.

Data request: Report IC50 for COCCNC(=O)[C@@H]1CC[C@@H](Nc2ncc3c(Br)nn(-c4ccc(-c5ccn[nH]5)cc4)c3n2)C1 please.
Data returned: 200 to 500 nM

Data request: Cool, now CNC(=O)[C@]1(C)CC[C@@H](Nc2ncc3c(Br)nn(-c4ccc(-c5nnc(C(=O)N6CCNCC6)s5)cc4)c3n2)C1
Data returned: 25 to 200 nM

Data request: Cool, now CNC(=O)[C@]1(C)CC[C@@H](Nc2ncc3c(Br)nn(-c4cnc5c(c4)OCC(=O)N5C)c3n2)C1
Data returned: 25 to 200 nM

Data request: Cool, now CNC(=O)[C@]1(C)CC[C@@H](Nc2ncc3c(Br)nn(-c4ccc(-c5ncc(C)[nH]5)cc4)c3n2)C1
Data returned: 25 to 200 nM

* * *

Target: GCN2 (Homo sapiens)
Assay: GCN2 enzymatic endpoint assay: phosphorylation of GFP-eIF2α measured by TR-FRET (Lanthascreen)
Type: biochemical
Conditions: tested as described in Example 77; compound and/or hydrochloride, dihydrochloride or trifluoroacetic acid salt; read-out: IC 50 Activity
Procedure: The Enzymatic assay was run as an endpoint assay to quantify the activity of the serine/threonine GCN2 kinase by way of measuring phosphorylation of its natural substrate, eiF2α. The enzymatic reaction was initiated by incubating with 2 μM ATP and 80 nM of GFP labeled eiF2a substrate at room temperature and then stopped after 90 minutes with EDTA. The amount of phosphorylated eIF2α is determined by TR-FRET (Lanthascreen). […]
pIC50: −log10 of the molar value.
Assign pIC50 to each entry below.

Data request: Report pIC50 for Cc1nnc(-c2ccc(-n3nc(Br)c4cnc(NC5CCOC5)nc43)cc2)s1 (centres unmarked) please.
Data returned: 6.70 to 7.60

Data request: Cool, now O=S(=O)(NC1CCC1)[C@@H]1CC[C@@H](Nc2ncc3c(Br)nn(-c4ccc5ncccc5c4)c3n2)C1
Data returned: 6.00 to 6.30

Data request: Cool, now CNC(=O)[C@]1(C)CC[C@@H](Nc2ncc3c(Br)nn(-c4ccc(-c5ncco5)c(OCC5CNC5)c4)c3n2)C1
Data returned: 6.70 to 7.60

Data request: Cool, now CNS(=O)(=O)C1CC[C@@H](Nc2ncc3c(Br)nn(-c4ccc(-c5nnc(C)s5)c(CCC#N)c4)c3n2)C1 (some centres unmarked)
Data returned: 6.70 to 7.60

Data request: Cool, now CNC(=O)C1(C)CC[C@@H](Nc2ncc3c(Br)nn(-c4ccc5nc(OC)ccc5c4)c3n2)C1 (some centres unmarked)
Data returned: 6.70 to 7.60

Data request: Cool, now Cc1nnc(-c2ccc(-n3nc(Br)c4cnc(N[C@@H]5CC[C@@](C)(C(=O)NC6CC6)C5)nc43)cc2)s1
Data returned: 6.70 to 7.60

Data request: Cool, now CNC(=O)[C@]1(C)CC[C@@H](Nc2ncc3c(Br)nn(-c4cc(CC#N)c5nccnc5c4)c3n2)C1
Data returned: 6.70 to 7.60

Data request: Cool, now CNC(=O)[C@]1(C)CC[C@@H](Nc2ncc3c(Br)nn(-c4ccc5c(c4)NC(=O)COC5)c3n2)C1
Data returned: 6.70 to 7.60

* * *

target: GCN2 (Homo sapiens, UniProt Q9P2K8); assay: GCN2 enzymatic endpoint assay: phosphorylation of GFP-eIF2α measured by TR-FRET (Lanthascreen); type: biochemical; details: tested as described in Example 77; compound and/or hydrochloride, dihydrochloride or trifluoroacetic acid salt; read-out: IC 50 Activity
MEASURED_PROPERTY: IC50

Data request: Report IC50 for CNC(=O)[C@]1(C)CC[C@@H](Nc2ncc3c(Br)nn(-c4ccc(-c5ncco5)c(NC(=O)CC#N)c4)c3n2)C1 please.
Data returned: 0.025 to 0.2 µM

Data request: Cool, now CNC(=O)[C@]1(C)CC[C@@H](Nc2ncc3c(Br)nn(-c4cc(F)c5nc(C)ccc5c4)c3n2)C1
Data returned: < 0.025 µM

Data request: Cool, now COC1CC(Nc2ncc3c(Br)nn(-c4cc(F)c5ncccc5c4)c3n2)C1 (centres unmarked)
Data returned: 0.025 to 0.2 µM

Data request: Cool, now CNC(=O)[C@]1(C)CC[C@@H](Nc2ncc3c(Br)nn(-c4ccc(C#N)c(OCC(C)O)c4)c3n2)C1 (some centres unmarked)
Data returned: 0.025 to 0.2 µM

Data request: Cool, now Cc1nnc(-c2ccc(-n3nc(Br)c4cnc(N[C@@H]5CCC(S(C)(=O)=O)C5)nc43)cc2)s1 (some centres unmarked)
Data returned: 0.025 to 0.2 µM

Data request: Cool, now CNC(=O)[C@]1(C)CC[C@@H](Nc2ncc3c(Br)nn(-c4ccc(-c5nnc(C)s5)c(CC(C)O)c4)c3n2)C1 (some centres unmarked)
Data returned: 0.025 to 0.2 µM

Data request: Cool, now O=C([C@@H]1CC[C@@H](Nc2ncc3c(Br)nn(-c4ccc5ncccc5c4)c3n2)C1)N1CCC(O)(C(F)(F)F)CC1
Data returned: 0.2 to 0.5 µM

Data request: Cool, now CNC(=O)[C@]1(C)CC[C@@H](Nc2ncc3c(Br)nn(-c4cc(Cl)c(F)c(CN)c4)c3n2)C1
Data returned: 0.025 to 0.2 µM
